These entries and their values trace back to ChEMBL document CHEMBL4665734.

System: Acinetobacter baumannii
assay-remarks: Inhibition of LspA in Acinetobacter baumannii assessed as inhibition of bacterial growth
Starred links: 1 amine or outer side, 2 acyl side, 3 side chain; linkers in the order of their positions; H or OH if unused. Non-standard residues stand in square brackets, D forms with d. Residues, ends and D or L forms follow the SMILES beside them. *: point of attachment. X6 = C[C@H](CO[C@H](CC1C[C@H]2CC[C@@H](C1)C2)[C@@H](C)C(=O)[*:2])N[*:1]; dAlaψ(CH2NBu)Nle = CCCC[C@@H](C(=O)[*:2])N(CCCC)C[C@@H](C)N[*:1]; X3 = C[C@H](CO[C@H](CC1CC2(CCC2)C1)[C@@H](C)C(=O)[*:2])N[*:1]; X1 = CCCCCC[C@@H](OC[C@@H](C)N[*:1])[C@@H](C)C(=O)[*:2]; Cyclobutyl(trans-3-NH2) = N[C@H]1C[C@H](*)C1; X4 = CCCCCCN(CCN[*:1])[C@@H](C)C(=O)[*:2]; Gly(cHept) = N[C@H](C(=O)O)C1CCCCCC1; NMeL = CN[C@@H](CC(C)C)C(=O)O; Chg = N[C@H](C(=O)O)C1CCCCC1; NMeNva = CCC[C@H](NC)C(=O)O; X2 = NC[C@H]1C[C@H](*)C1; Dap = NC[C@H](N)C(=O)O; X5 = NCCCNCCC*
Item-by-item account of MIC

compound	MIC
CCC[C@H]1C(=O)N[C@@H](C2CCCCCC2)C(=O)N[C@@H](CN)C(=O)N[C@@H](COCCCNCCCN)C(=O)N[C@H](C)CO[C@H](CC2CC3(CCC3)C2)[C@@H](C)C(=O)N1C (cyclo([Dap]S(X5)[X3][NMeNva][Gly(cHept)]))	50 µM
CCC[C@H]1C(=O)N[C@@H](C2CCCCCC2)C(=O)N[C@@H](CN)C(=O)N[C@@H](CO[C@H]2C[C@H](N)C2)C(=O)N[C@H](C)CO[C@H](CC2C[C@H]3CC[C@@H](C2)C3)[C@@H](C)C(=O)N1C (stereo partly drawn) (cyclo([Dap]S(Cyclobutyl(trans-3-NH2))[X6][NMeNva][Gly(cHept)]))	25 µM
CCC[C@H]1C(=O)N[C@@H](C2CCCCCC2)C(=O)N[C@@H](CN)C(=O)N[C@@H](CO[C@H]2C[C@H](N)C2)C(=O)N[C@H](C)CO[C@H](CC2CC3(CCC3)C2)[C@@H](C)C(=O)N1C (cyclo([Dap]S(Cyclobutyl(trans-3-NH2))[X3][NMeNva][Gly(cHept)]))	18 µM
CCCC[C@H]1C(=O)N(C)[C@@H](CCC)C(=O)N[C@@H](C2CCCCC2)C(=O)N[C@@H](CN)C(=O)N[C@@H](CO[C@H]2C[C@H](N)C2)C(=O)N[C@H](C)CN1CCCC (cyclo([Chg][Dap]S(Cyclobutyl(trans-3-NH2))[dAlaψ(CH2NBu)Nle][NMeNva]))	25 µM
CCC[C@H]1C(=O)N[C@@H](C2CCCCCC2)C(=O)N[C@@H](CN)C(=O)N[C@@H](COCCCNCCCN)C(=O)N[C@H](C)CO[C@H](CC2C[C@H]3CC[C@@H](C2)C3)[C@@H](C)C(=O)N1C (stereo partly drawn) (cyclo([Dap]S(X5)[X6][NMeNva][Gly(cHept)]))	25 µM
CCCCCCN1CCNC(=O)[C@H](CO[C@H]2C[C@H](N)C2)NC(=O)[C@H](CN)NC(=O)[C@H](C2CCCCC2)NC(=O)[C@H](CC(C)C)N(C)C(=O)[C@@H]1C (cyclo([Chg][Dap]S(Cyclobutyl(trans-3-NH2))[X4][NMeL]))	> 100 µM
CCCCCC[C@H]1OC[C@@H](C)NC(=O)[C@H](CO[C@H]2C[C@H](CN)C2)NC(=O)[C@H](CN)NC(=O)[C@H](C2CCCCCC2)NC(=O)[C@H](CCC)N(C)C(=O)[C@@H]1C (cyclo([Dap]S(X2)[X1][NMeNva][Gly(cHept)]))	18 µM
CCCCCC[C@H]1OC(=O)CNC(=O)[C@H]([C@H](C)O)NC(=O)[C@H](CO)NC(=O)[C@H]([C@H](C)CC)NC(=O)[C@H](CC(C)C)N(C)C(=O)[C@@H]1C	> 100 µM

---

Tested on: Escherichia coli CFT073
assay-remarks: Inhibition of LspA in wild type Escherichia coli CFT073 assessed as inhibition of bacterial growth
Starred links: 1 amine or outer side, 2 acyl side, 3 side chain; linkers in the order of their positions; H or OH if unused. Non-standard residues stand in square brackets, D forms with d. Residues, ends and D or L forms follow the SMILES beside them. *: point of attachment. X1 = CCCCCC[C@@H](OC[C@@H](C)N[*:1])[C@@H](C)C(=O)[*:2]; Gly(cHept) = N[C@H](C(=O)O)C1CCCCCC1; NMeNva = CCC[C@H](NC)C(=O)O; X14 = NCCN1CC[C@H](*)C1; Dap = NC[C@H](N)C(=O)O
Item-by-item account of MIC

molecule	target-entity	reported-relation	MIC / µM
CCCCCC[C@H]1OC(=O)CNC(=O)[C@H]([C@H](C)O)NC(=O)[C@H](CN)NC(=O)[C@H]([C@@H](C)O)NC(=O)[C@H](CC(C)C)N(C)C(=O)[C@@H]1C	Escherichia coli CFT073	>	100
CCCCCC[C@H]1OC(=O)CNC(=O)[C@H]([C@H](C)O)NC(=O)[C@H](CN)NC(=O)[C@H](C2CCCCC2)NC(=O)[C@H](CCC)N(C)C(=O)[C@@H]1C	Escherichia coli CFT073	=	3.5
CCCCCCCCCC[C@H]1OC(=O)CNC(=O)[C@H]([C@H](C)O)NC(=O)[C@H](CN)NC(=O)[C@H]([C@@H](C)CC)NC(=O)[C@H](CC(C)C)N(C)C(=O)[C@@H]1C	Escherichia coli CFT073	=	2.2
CCCCCC[C@H]1OC[C@@H](C)NC(=O)[C@H](CO[C@H]2CCN(CCN)C2)NC(=O)[C@H](CN)NC(=O)[C@H](C2CCCCCC2)NC(=O)[C@H](CCC)N(C)C(=O)[C@@H]1C (cyclo([Dap]S(X14)[X1][NMeNva][Gly(cHept)]))	Escherichia coli CFT073	=	6.3
CCCCCCCCCC[C@H]1OC(=O)CNC(=O)[C@H]([C@H](C)O)NC(=O)[C@H](Cc2c[nH]cn2)NC(=O)[C@H]([C@@H](C)CC)NC(=O)[C@H](CC(C)C)N(C)C(=O)[C@@H]1C	Escherichia coli CFT073	=	100
CCCCCC[C@H]1OC(=O)CNC(=O)[C@H]([C@H](C)O)NC(=O)[C@H](CN)NC(=O)[C@H](c2ccccc2)NC(=O)[C@H](CC(C)C)N(C)C(=O)[C@@H]1C	Escherichia coli CFT073	=	71
CCCCCCCCCC[C@H]1OC(=O)CNC(=O)[C@H]([C@H](C)O)NC(=O)[C@H](CO)NC(=O)[C@H]([C@@H](C)CC)NC(=O)[C@H](CC(C)C)N(C)C(=O)[C@@H]1C	Escherichia coli CFT073	=	9.4
CCC[C@H]1C(=O)N[C@@H](C2CCCCCC2)C(=O)N[C@@H](CN)C(=O)N[C@@H]([C@H](C)O)C(=O)NCC(=O)O[C@H](CC2CC3CCC2C3)[C@@H](C)C(=O)N1C (stereo in doubt; 27)	Escherichia coli CFT073	=	0.78
CC[C@@H](C)[C@@H]1NC(=O)[C@H](CC(C)C)N(C)C(=O)[C@H](C)[C@@H](CCCCC(C)(C)C)OC(=O)CNC(=O)[C@H]([C@H](C)O)NC(=O)[C@H](CN)NC1=O	Escherichia coli CFT073	=	3.1
CCCCCC[C@H]1OC(=O)CNC(=O)[C@H]([C@H](C)O)NC(=O)[C@H](CN)NC(=O)[C@H](CCC(N)=O)NC(=O)[C@H](CC(C)C)N(C)C(=O)[C@@H]1C	Escherichia coli CFT073	>	100

---

Item-by-item account of MIC
System: Escherichia coli CFT073
assay-remarks: Inhibition of LspA in wild type Escherichia coli CFT073 assessed as inhibition of bacterial growth
Starred links: 1 amine or outer side, 2 acyl side, 3 side chain; linkers in the order of their positions; H or OH if unused. Non-standard residues stand in square brackets, D forms with d. Residues, ends and D or L forms follow the SMILES beside them. *: point of attachment. X6 = C[C@H](CO[C@H](CC1C[C@H]2CC[C@@H](C1)C2)[C@@H](C)C(=O)[*:2])N[*:1]; Cyclobutyl(trans-3-NH2) = N[C@H]1C[C@H](*)C1; Gly(cHept) = N[C@H](C(=O)O)C1CCCCCC1; NMeNva = CCC[C@H](NC)C(=O)O; Dap = NC[C@H](N)C(=O)O

molecule	target-entity	MIC
CCCCCCCCCC[C@H]1OC(=O)CNC(=O)[C@H]([C@H](C)O)NC(=O)[C@H](CN)NC(=O)[C@H]([C@H](C)CC)NC(=O)[C@H](CC(C)C)N(C)C(=O)[C@@H]1C	Escherichia coli CFT073	2.1 µM
CC[C@@H](C)[C@@H]1NC(=O)[C@H](CC(C)C)N(C)C(=O)[C@H](C)[C@@H](CCCCCC(F)(F)F)OC(=O)CNC(=O)[C@H]([C@H](C)O)NC(=O)[C@H](CN)NC1=O	Escherichia coli CFT073	25 µM
CCC[C@H]1C(=O)N[C@@H](C2CCCCCC2)C(=O)N[C@@H](CN)C(=O)N[C@@H](CO[C@H]2C[C@H](N)C2)C(=O)N[C@H](C)CO[C@H](CC2C[C@H]3CC[C@@H](C2)C3)[C@@H](C)C(=O)N1C (stereo partly drawn) (cyclo([Dap]S(Cyclobutyl(trans-3-NH2))[X6][NMeNva][Gly(cHept)]))	Escherichia coli CFT073	0.78 µM
CCCCCC[C@H]1OCCCNC(=O)[C@H]([C@H](C)O)NC(=O)[C@H](CN)NC(=O)[C@H](C2CCCCC2)NC(=O)[C@H](CC(C)C)N(C)C(=O)[C@@H]1C	Escherichia coli CFT073	12 µM
